tested on: Fibroblast; experiment: Multiplex assay against human fibroblast; type: toxicity, cell-based; conditions: 24 h, 10 µM, compound concentration 10 uM, replicate 1
reported metric: Population Healthy Nuclei (%)
Hi, when you answer, please include the unit after the number. Thanks!

Asked: Return reported Population Healthy Nuclei (%); argument: CC(=O)NCCc1c(Cc2ccccc2)[nH]c2ccccc12
Given back: 67%

Asked: Return reported Population Healthy Nuclei (%); argument: CCOc1c2c(c(OCC)c3ncccc13)CN(c1ccc(CS(=O)(=O)NC(=O)Cc3ccccc3OC)cc1C)C2=O
Given back: 66%

Asked: Return reported Population Healthy Nuclei (%); argument: O=C(NCC(=O)N1CC[C@H](N[C@H]2CC[C@@](O)(c3ccc(-c4ncccn4)cn3)CC2)C1)c1cccc(C(F)(F)F)c1
Given back: 72%

Asked: Return reported Population Healthy Nuclei (%); argument: Cc1ccc(/C(=C\CN2CCCC2)c2ccccn2)cc1
Given back: 68%

Asked: Return reported Population Healthy Nuclei (%); argument: CCCC(CCC)C(=O)O
Given back: 66%

Asked: Return reported Population Healthy Nuclei (%); argument: O=C(NCCO)c1cccc(-c2cc(Nc3ccc(OC(F)(F)F)cc3)ncn2)c1
Given back: 61%

Asked: Return reported Population Healthy Nuclei (%); argument: CCCn1c(=O)c2[nH]c(C3CCCC3)nc2n(CCC)c1=O
Given back: 61%

Asked: Return reported Population Healthy Nuclei (%); argument: COc1c(C)cc(NC(=O)c2nn(Cc3ccc(F)cc3)c3c2CN(C(=O)c2ccc[nH]2)C[C@]3(C)C(N)=O)cc1C
Given back: 64%

Asked: Return reported Population Healthy Nuclei (%); argument: CC[C@H]1OC(=O)[C@H](C)[C@@H](O[C@H]2C[C@@](C)(OC)[C@@H](O)[C@H](C)O2)[C@H](C)[C@@H](O[C@@H]2O[C@H](C)C[C@H](N(C)C)[C@H]2O)[C@@]2(C)CC(C)=C(O2)[C@H](C)[C@@H](O)[C@]1(C)O
Given back: 69%

Asked: Return reported Population Healthy Nuclei (%); argument: C[C@@H]1C[C@H]2[C@@H]3CCC4=CC(=O)C=C[C@]4(C)[C@@]3(F)[C@@H](O)C[C@]2(C)[C@@]1(O)C(=O)CO
Given back: 65%

Asked: Return reported Population Healthy Nuclei (%); argument: Cc1ccccc1C(=O)Nc1ccc(C(=O)N2CCCC(N(C)C)c3ccccc32)cc1.Cl (stereo unspecified)
Given back: 58%

Asked: Return reported Population Healthy Nuclei (%); argument: COc1cc(NC(=O)CCN2CCC(OC(=O)Nc3ccccc3-c3ccccc3)CC2)c(Cl)cc1CNC[C@H](O)c1ccc(O)c2[nH]c(=O)ccc12
Given back: 53%

Asked: Return reported Population Healthy Nuclei (%); argument: O=C(O)Cc1ccccc1Nc1c(Cl)cccc1Cl
Given back: 68%

Asked: Return reported Population Healthy Nuclei (%); argument: C[C@H]1[C@H]2CC[C@H]3[C@@H]4CC=C5C[C@@H](N(C)C)CC[C@]5(C)[C@H]4CC[C@]23CN1C
Given back: 61%

Asked: Return reported Population Healthy Nuclei (%); argument: CN1CCN2c3ncccc3Cc3ccccc3C2C1 (stereo unspecified)
Given back: 72%

Asked: Return reported Population Healthy Nuclei (%); argument: Oc1c(CN2CCN(c3ccccn3)CC2)cc(Cl)c2cccnc12
Given back: 46%

====

Would you mind telling me the reported Population Hoechst High Intensity Objects (%) of each entry?
tested on: Fibroblast; assay: Multiplex assay against human fibroblast; format: toxicity, cell-based; conditions: 12 h, 10 µM, compound concentration 10 uM, replicate 2

Asked: Return reported Population Hoechst High Intensity Objects (%); argument: O=S(=O)(c1ccccc1)c1cnc2c(N3CCNCC3)cccc2c1 [INTEPIRDINE]
Given back: 6%

Asked: Return reported Population Hoechst High Intensity Objects (%); argument: Cc1nc2ccc(Oc3ccc(F)cc3)cc2c(=O)n1C[C@H]1CCCN(C(C)C)C1.Cl
Given back: 3%

Asked: Return reported Population Hoechst High Intensity Objects (%); argument: Cc1ccccc1C(=O)Nc1ccc(C(=O)N2CCCC(N(C)C)c3ccccc32)cc1.Cl (configuration not stated)
Given back: 4%

Asked: Return reported Population Hoechst High Intensity Objects (%); argument: O=C(NCC(=O)N1CC[C@H](N[C@H]2CC[C@@](O)(c3ccc(-c4ncccn4)cn3)CC2)C1)c1cccc(C(F)(F)F)c1 [PF-4136309]
Given back: 5%

Asked: Return reported Population Hoechst High Intensity Objects (%); argument: COc1ccc2c(c1)C(C(=O)N(Cc1ccc(N(C)C)cc1)c1ccc(C(C)C)cc1)CCC2.Cl (configuration not stated)
Given back: 2%

Asked: Return reported Population Hoechst High Intensity Objects (%); argument: CC(=O)O[C@H]1C(=O)[C@@]2(C)[C@H]([C@H](OC(=O)c3ccccc3)[C@]3(O)C[C@H](OC(=O)[C@H](O)[C@@H](NC(=O)c4ccccc4)c4ccccc4)C(C)=C1C3(C)C)[C@]1(OC(C)=O)CO[C@@H]1C[C@@H]2O [PACLITAXEL]
Given back: 1%

Asked: Return reported Population Hoechst High Intensity Objects (%); argument: CC(C)(C)c1ccc(S(=O)(=O)Nc2ccc(Cl)cc2C(=O)c2cc[n+]([O-])cc2)cc1 [VERCIRNON]
Given back: 5%

====

tested on: Fibroblast; experiment: Multiplex assay against human fibroblast; format: toxicity, cell-based; settings: 24 h, 1 µM, compound concentration 1 uM, replicate 1
reported metric: Population Healthy Nuclei (%)
A number alone suffices; assume %.

Asked: Return reported Population Healthy Nuclei (%); argument: CN(C)CCCc1cc(C(=O)Nc2ccc(-c3ccncc3)cc2)ccc1O.Cl.Cl
Given back: 66

Asked: Return reported Population Healthy Nuclei (%); argument: CSc1ccccc1N1CCN(CCCCCC(=O)NC2CCCc3ccccc32)CC1.Cl (centres undefined)
Given back: 52

Asked: Return reported Population Healthy Nuclei (%); argument: N[C@@]1(C(=O)O)CO[C@H]2[C@H](C(=O)O)[C@H]21
Given back: 70

Asked: Return reported Population Healthy Nuclei (%); argument: C[C@H](NC(=O)c1c(C(F)F)nn(C)c1Oc1cccc(C(F)(F)F)c1)c1ccc(C(=O)O)cc1
Given back: 58

====

Would you mind telling me the reported Population Tubulin-Different-Phenotype (%) of each entry?
test system: Fibroblast; assay: Multiplex assay against human fibroblast; format: toxicity, cell-based; details: 48 h, 1 µM, compound concentration 1 uM, replicate 2
A number alone suffices; assume %.

Asked: Return reported Population Tubulin-Different-Phenotype (%); argument: CCCn1c(=O)c2[nH]c(C3CCCC3)nc2n(CCC)c1=O
Given back: 55

Asked: Return reported Population Tubulin-Different-Phenotype (%); argument: CC1(COc2ccc3c(c2)ncn3-c2ccc3cccc(N4CCC(N)CC4)c3n2)COC1
Given back: 74

Asked: Return reported Population Tubulin-Different-Phenotype (%); argument: O=C(NCCO)c1cccc(-c2cc(Nc3ccc(OC(F)(F)F)cc3)ncn2)c1
Given back: 38

Asked: Return reported Population Tubulin-Different-Phenotype (%); argument: CN(C)c1ccnc2sc3c(=O)n(N4CCCCCC4)cnc3c12
Given back: 41

Asked: Return reported Population Tubulin-Different-Phenotype (%); argument: CN(C)CCCc1cc(C(=O)Nc2ccc(-c3ccncc3)cc2)ccc1O.Cl.Cl
Given back: 46

====

system: Fibroblast; assay: Multiplex assay against human fibroblast; format: toxicity, cell-based; details: 48 h, 1 µM, compound concentration 1 uM, replicate 2
reported metric: Population Normal (%)
A number alone suffices; assume %.

Asked: Return reported Population Normal (%); argument: COc1c(C)cc(NC(=O)c2nn(Cc3ccc(F)cc3)c3c2CN(C(=O)c2ccc[nH]2)C[C@]3(C)C(N)=O)cc1C
Given back: 94

Asked: Return reported Population Normal (%); argument: O=C1COc2nccc(-c3ccccc3F)c2CN1Cc1cc(C(F)(F)F)cc(C(F)(F)F)c1
Given back: 93

Asked: Return reported Population Normal (%); argument: Cc1ccc(F)cc1C(=O)Nc1ccc(C(=O)N2Cc3cccn3Cc3ccccc32)c(Cl)c1
Given back: 99

Asked: Return reported Population Normal (%); argument: CN1CCN(c2nc3cc(C(F)(F)F)ccc3n3cccc23)CC1.O=C(O)/C=C\C(=O)O.O=C(O)/C=C\C(=O)O
Given back: 96

Asked: Return reported Population Normal (%); argument: Cc1ccc(/C(=C\CN2CCCC2)c2ccccn2)cc1
Given back: 92

Asked: Return reported Population Normal (%); argument: c1cc(OCCCN2CCCCC2)ccc1CN1CCCCC1
Given back: 95

Asked: Return reported Population Normal (%); argument: COc1cc(C(=O)N(CCCc2ccccc2)Cc2ccc(CC(=O)O)cc2)cc(OC)c1C
Given back: 97

Asked: Return reported Population Normal (%); argument: Oc1c(CN2CCN(c3ccccn3)CC2)cc(Cl)c2cccnc12
Given back: 99

Asked: Return reported Population Normal (%); argument: O=S(=O)(c1ccccc1)c1cnc2c(N3CCNCC3)cccc2c1 [INTEPIRDINE]
Given back: 96

Asked: Return reported Population Normal (%); argument: CC(=O)NCCc1c(Cc2ccccc2)[nH]c2ccccc12
Given back: 91

Asked: Return reported Population Normal (%); argument: O=C(NCC(=O)N1CC[C@H](N[C@H]2CC[C@@](O)(c3ccc(-c4ncccn4)cn3)CC2)C1)c1cccc(C(F)(F)F)c1
Given back: 95

Asked: Return reported Population Normal (%); argument: O=C(O)Cc1ccccc1Nc1c(Cl)cccc1Cl
Given back: 94

Asked: Return reported Population Normal (%); argument: C[C@H]1[C@H]2CC[C@H]3[C@@H]4CC=C5C[C@@H](N(C)C)CC[C@]5(C)[C@H]4CC[C@]23CN1C
Given back: 99

Asked: Return reported Population Normal (%); argument: O=C(O)c1cc2ccccc2c(Cc2c(O)c(C(=O)O)cc3ccccc23)c1O
Given back: 96

Asked: Return reported Population Normal (%); argument: C[C@H](NC(=O)c1c(C(F)F)nn(C)c1Oc1cccc(C(F)(F)F)c1)c1ccc(C(=O)O)cc1
Given back: 96

Asked: Return reported Population Normal (%); argument: Cl.Clc1ccc2nsnc2c1NC1=NCCN1 [TIZANIDINE HYDROCHLORIDE]
Given back: 93

Asked: Return reported Population Normal (%); argument: CCOc1c2c(c(OCC)c3ncccc13)CN(c1ccc(CS(=O)(=O)NC(=O)Cc3ccccc3OC)cc1C)C2=O
Given back: 94

Asked: Return reported Population Normal (%); argument: CCCN1CCC[C@@H]2Cc3n[nH]cc3C[C@H]21.Cl [QUINPIROLE HYDROCHLORIDE]
Given back: 98

Asked: Return reported Population Normal (%); argument: CSc1ccccc1N1CCN(CCCCCC(=O)NC2CCCc3ccccc32)CC1.Cl (stereo unspecified)
Given back: 98

Asked: Return reported Population Normal (%); argument: CCCn1c(=O)c2[nH]c(C3CCCC3)nc2n(CCC)c1=O
Given back: 92

Asked: Return reported Population Normal (%); argument: CN(C)CCCc1cc(C(=O)Nc2ccc(-c3ccncc3)cc2)ccc1O.Cl.Cl
Given back: 91

Asked: Return reported Population Normal (%); argument: CC1(COc2ccc3c(c2)ncn3-c2ccc3cccc(N4CCC(N)CC4)c3n2)COC1
Given back: 99

Asked: Return reported Population Normal (%); argument: CC(C)(C)c1ccc(S(=O)(=O)Nc2ccc(Cl)cc2C(=O)c2cc[n+]([O-])cc2)cc1
Given back: 93

Asked: Return reported Population Normal (%); argument: Cc1nc2ccc(Oc3ccc(F)cc3)cc2c(=O)n1C[C@H]1CCCN(C(C)C)C1.Cl
Given back: 94

Asked: Return reported Population Normal (%); argument: CCNC1(C(N)=O)CCN(c2ncnc3c2nc(-c2ccccc2Cl)n3-c2ccc(Cl)cc2)CC1
Given back: 94

Asked: Return reported Population Normal (%); argument: CC[C@H]1OC(=O)[C@H](C)[C@@H](O[C@H]2C[C@@](C)(OC)[C@@H](O)[C@H](C)O2)[C@H](C)[C@@H](O[C@@H]2O[C@H](C)C[C@H](N(C)C)[C@H]2O)[C@@]2(C)CC(C)=C(O2)[C@H](C)[C@@H](O)[C@]1(C)O
Given back: 97

Asked: Return reported Population Normal (%); argument: N[C@@]1(C(=O)O)CO[C@H]2[C@H](C(=O)O)[C@H]21
Given back: 88

Asked: Return reported Population Normal (%); argument: CN1CCN2c3ncccc3Cc3ccccc3C2C1 (stereo unspecified)
Given back: 97

Asked: Return reported Population Normal (%); argument: Cc1ccc(C(C)(O)c2nc3ccccc3s2)c(C)c1 (stereo unspecified)
Given back: 96

Asked: Return reported Population Normal (%); argument: C[C@@H]1C[C@H]2[C@@H]3CCC4=CC(=O)C=C[C@]4(C)[C@@]3(F)[C@@H](O)C[C@]2(C)[C@@]1(O)C(=O)CO
Given back: 95

Asked: Return reported Population Normal (%); argument: CN(C)c1ccnc2sc3c(=O)n(N4CCCCCC4)cnc3c12
Given back: 96

The reported numbers originate from ChEMBL document CHEMBL5058577.
